PROTOCOL DETAILS: qHTS for Inhibitors of human tyrosyl-DNA phosphodiesterase 1 (TDP1): qHTS in cells in presence of CPT; further: nearly all actives have a fitted effect of over 55% in size
SETUP CONDITIONS: chicken DT40 Tdp1-/-;hTDP1 cells + 20 nM CPT, ATP luminescence, 48 h; series mostly up to 46.2 µM
The campaign covered roughly 420,000 compounds. About 50,000 (12%) were called active. Not shown: some 26% with an inconclusive outcome. The call rests on the fitted dose curve; in most records, active means well fitted inhibition curve with a large enough effect; inconclusive means small, poorly fitted or top-dose-only effect; inactive means flat fitted curve, though single readings scatter. Only a selection was taken, and actives are over-represented in it overall.
Your reply should match one of these outcome classes. T = active, F = inactive

Example cases with answers are listed next.
[[record]]
compound = "CC1=C(C(=O)Nc2ccccc2)C(c2ccc(C)cc2)n2nc(SCc3ccccc3C)nc2N1 (configuration not stated)"
classification = "F"

[[record]]
compound = "COc1ccc(-c2nnc(SCC(=O)Nc3cccnc3Cl)n2C)cc1"
classification = "F"

[[record]]
compound = "CCNC(=O)c1cnn(-c2ccccc2)c1-c1ccccc1"
classification = "F"

[[record]]
compound = "CC1CCCC(NC(=O)COC(=O)c2ccccc2C(=O)N(C)C2CCCCC2)C1C (configuration not stated)"
classification = "T"

[[record]]
compound = "O=C(NCCCN1CCOCC1)c1ccc([N+](=O)[O-])cc1[N+](=O)[O-]"
classification = "F"


(Q) Which outcome did this test record for the compound `O=[N+]([O-])c1cc(S(=O)(=O)CCCN2CCOCC2)ccc1F` ?
(A) T

====

PROTOCOL DETAILS: qHTS for Inhibitors of human tyrosyl-DNA phosphodiesterase 1 (TDP1): qHTS in cells in presence of CPT; further: nearly all actives have a fitted effect of over 55% in size
SETUP CONDITIONS: chicken DT40 Tdp1-/-;hTDP1 cells + 20 nM CPT, ATP luminescence, 48 h; series mostly up to 46.2 µM
In all, about 420,000 compounds went through this assay and about 50,000 (12%) were called active. About 26% were inconclusive and are not listed. The call rests on the fitted dose curve; in most records, active means well fitted inhibition curve with a large enough effect; inconclusive means small, poorly fitted or top-dose-only effect; inactive means flat fitted curve, though single readings scatter. The sample holds actives, similar compounds and a random draw of the others, so the mix is not that of the screen.
Your reply should match one of these outcome classes. active, inactive

Example cases with answers are listed next.
[[record]]
mol_smiles = "Cc1ccccc1NCC(=O)N/N=C\\c1ccc([N+](=O)[O-])s1"
classification = "active"

[[record]]
mol_smiles = "O=C1C[C@@H]2c3c(cccc3CN1Cc1ccccc1)C[C@@H](O)[C@H]2O"
classification = "inactive"

[[record]]
mol_smiles = "COc1cc(CC(=O)N2CCC(n3nccc3NC(=O)C3CC3)CC2)cc(OC)c1OC"
classification = "inactive"

[[record]]
mol_smiles = "CCOC(=O)[C@H]1[C@H]2COc3cc(OC)ccc3[C@@H]2N2C(=O)N(c3ccc(Br)cc3)C(=O)[C@@]12C"
classification = "active"


Turning now to a further compound:
(Q) Which outcome did this test record for the compound `CN(CCC#N)c1ccc(C=O)cc1` ?
(A) inactive

====

PROTOCOL DETAILS: qHTS for Inhibitors of human tyrosyl-DNA phosphodiesterase 1 (TDP1): qHTS in cells in presence of CPT; further: nearly all actives have a fitted effect of over 55% in size
SETUP CONDITIONS: chicken DT40 Tdp1-/-;hTDP1 cells + 20 nM CPT, ATP luminescence, 48 h; series mostly up to 46.2 µM
Protocol: Human tyrosyl-DNA phosphodiesterase 1 (TDP1) is a novel repair gene, and we propose to use it as a new target for anticancer drug development. […] For the primary screen, Tdp1-/-;hTDP1 cells will be exposed to small molecules in the presence or absence of CPT, and their growth kinetics will be evaluated after 48 hours by measuring ATP activity. […] The hit compounds will then be evaluated in the presence or absence of CPT using Tdp1-/- cells. […]
Screen size: about 420,000 compounds; about 50,000 (12%) were called active. Roughly 26% stayed inconclusive and do not appear here. Calls come from the whole dose curve; as a rule, active = well fitted inhibition curve with a large enough effect; inconclusive = small, poorly fitted or top-dose-only effect; inactive = flat fitted curve, though single readings scatter. The sample holds actives, similar compounds and a random draw of the others, so the mix is not that of the screen.
Your reply should match one of these outcome classes. YES = active, NO = inactive

[[record]]
compound = "Cc1ccc2c(=O)cc(C(=O)Nc3sc4c(c3C(=O)NCc3cccnc3)CCCC4)oc2c1"
classification = "NO"

[[record]]
compound = "O=S(=O)(c1ccc(Br)cc1)N1CCC(c2nc3ccccc3[nH]2)CC1"
classification = "YES"

[[record]]
compound = "CC(NS(=O)(=O)c1ccc(Br)cc1)C(=O)NCC1CCCO1 (configuration not stated)"
classification = "NO"

[[record]]
compound = "Cc1cccc(NC(=O)C2CCN(C(=O)NC3CCCCC3)CC2)c1"
classification = "NO"

[[record]]
compound = "O=C(NCc1ccccn1)C1CCN(S(=O)(=O)c2ccc(Br)cc2)CC1"
classification = "NO"


(Q) Which outcome did this test record for the compound `CCc1ccc(-n2nnc(-c3nc(-c4ccccc4)no3)c2C)cc1` ?
(A) NO

(Q) Which outcome did this test record for the compound `CCN1CCN(Cc2c(O)ccc3c(=O)c(-c4ccc(OC)c(OC)c4)c(C(F)(F)F)oc23)CC1` ?
(A) NO
